Kindly supply the reported fold difference in affinity vs original values for the records listed here.
biological target: binding partner of C5A (XPA23); test: Biacore
All answers are understood in fold, so give the number only.

// fold difference in affinity vs original lookup, binder = C5A (XPA23) VH Y107G (antibody, V domains shown) VH: EVQLLESGGGLVQPGGSLRLSCAASGFTFSKYFMFWVRQAPGKGLEWVSVISPSGGMTRYADSVKGRFTISRDNSKNTLYLQMNSLRAEDTAVYYCARVGYGGNSDGWGQGTLVTVSS VL: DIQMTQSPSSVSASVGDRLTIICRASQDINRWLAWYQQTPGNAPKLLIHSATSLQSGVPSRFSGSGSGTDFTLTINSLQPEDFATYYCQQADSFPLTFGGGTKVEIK , result: 0.1

// fold difference in affinity vs original lookup, binder = C5A (XPA23) VH I51G (antibody, V domains shown) VH: EVQLLESGGGLVQPGGSLRLSCAASGFTFSKYFMFWVRQAPGKGLEWVSVGSPSGGMTRYADSVKGRFTISRDNSKNTLYLQMNSLRAEDTAVYYCARVGYGGNSDYWGQGTLVTVSS VL: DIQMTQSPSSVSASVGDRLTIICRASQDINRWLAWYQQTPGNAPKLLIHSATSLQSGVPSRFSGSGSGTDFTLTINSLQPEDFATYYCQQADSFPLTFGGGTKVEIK , result: 0.94

// fold difference in affinity vs original lookup, binder = C5A (XPA23) VH S54V (antibody, V domains shown) VH: EVQLLESGGGLVQPGGSLRLSCAASGFTFSKYFMFWVRQAPGKGLEWVSVISPVGGMTRYADSVKGRFTISRDNSKNTLYLQMNSLRAEDTAVYYCARVGYGGNSDYWGQGTLVTVSS VL: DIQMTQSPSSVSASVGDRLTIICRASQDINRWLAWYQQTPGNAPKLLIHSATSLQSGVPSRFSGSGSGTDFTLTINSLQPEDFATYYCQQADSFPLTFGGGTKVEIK , result: 1
